Kindly state IC50 for each of the entries shown.
Target: hERG potassium channel (Homo sapiens (Human), UniProt Q12809)
Sequence (Q12809 whole entry): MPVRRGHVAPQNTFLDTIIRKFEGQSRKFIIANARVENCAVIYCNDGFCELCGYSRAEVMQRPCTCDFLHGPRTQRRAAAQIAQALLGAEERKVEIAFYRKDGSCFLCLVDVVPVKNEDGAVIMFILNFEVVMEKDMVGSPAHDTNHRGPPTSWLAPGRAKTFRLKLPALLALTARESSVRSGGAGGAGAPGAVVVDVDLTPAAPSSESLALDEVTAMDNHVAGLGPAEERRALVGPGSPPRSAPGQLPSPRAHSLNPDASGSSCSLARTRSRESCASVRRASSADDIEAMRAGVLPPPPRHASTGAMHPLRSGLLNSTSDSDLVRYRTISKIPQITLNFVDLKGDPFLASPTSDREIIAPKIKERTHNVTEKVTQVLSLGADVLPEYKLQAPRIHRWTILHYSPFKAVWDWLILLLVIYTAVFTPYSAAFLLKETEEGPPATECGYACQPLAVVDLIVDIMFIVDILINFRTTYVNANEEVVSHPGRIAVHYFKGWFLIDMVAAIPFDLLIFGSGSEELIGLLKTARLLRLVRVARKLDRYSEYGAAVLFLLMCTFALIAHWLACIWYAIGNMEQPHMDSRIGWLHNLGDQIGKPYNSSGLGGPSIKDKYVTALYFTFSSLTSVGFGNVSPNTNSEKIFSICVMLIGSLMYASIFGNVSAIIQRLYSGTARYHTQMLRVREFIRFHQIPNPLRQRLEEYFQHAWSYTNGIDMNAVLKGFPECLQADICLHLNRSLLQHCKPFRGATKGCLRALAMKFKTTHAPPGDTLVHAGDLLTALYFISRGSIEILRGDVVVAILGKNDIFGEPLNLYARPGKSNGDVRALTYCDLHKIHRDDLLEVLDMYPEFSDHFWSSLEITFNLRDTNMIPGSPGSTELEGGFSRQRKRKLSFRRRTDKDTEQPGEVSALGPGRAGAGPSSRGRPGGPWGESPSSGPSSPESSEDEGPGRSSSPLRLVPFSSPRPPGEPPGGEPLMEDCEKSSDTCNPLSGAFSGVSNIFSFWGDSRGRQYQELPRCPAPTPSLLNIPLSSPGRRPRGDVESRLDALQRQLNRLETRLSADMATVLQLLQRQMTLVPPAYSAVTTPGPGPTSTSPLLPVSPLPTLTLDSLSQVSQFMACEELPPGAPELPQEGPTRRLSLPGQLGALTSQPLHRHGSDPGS
Test: hERG inhibition, automated planar patch-clamp in hERG-expressing CHO cells
Conditions: read-out: Test Example 5 hERG IC50; whole-cell patch clamp, room temperature
Output spec: scalar in µM, unitless text.

Task item: State its IC50: CC#Cc1cncc(-c2ccc3c(c2)C2(COC(N)=N2)C2(COC2)C(CCC)O3)c1 (stereo not shown) [RP 92]
Reply: 5.34

Task item: Quick one: give measured IC50 for NC1=NC2(CO1)c1cc(-c3cncc(OCC(F)F)c3)ccc1OCC21CC1 (stereo not shown) [RP 59]
Reply: 6.9

Task item: Report IC50 for NC1=NC2(CO1)c1cc(-c3cnc4[nH]ccc4c3)ccc1OCC21CC1 (stereo not shown) [RP 61]
Reply: 9.22

* * *

Biological target: BACE1 (Homo sapiens (Human))
Test: Measurement of Aβ production inhibition in cell (SK-N-BE(2) neuroblastoma cells, Aβ40 ELISA)
Conditions: Test Example 3 IC50, Aβ40 production, SK-N-BE(2) cells, 6 hours
pIC50: −log10 of the molar value.
Tick label 1 if pIC50 is 6 or greater. Tick label 0 if pIC50 is less than 6.

Task item: Entry CC1(C)Oc2ccc(-c3cc(F)ncc3Cl)cc2C2(COC(N)=N2)C12COC2 (stereo not drawn) : is its pIC50 no less than 6?
Reply: label 1

Task item: Is the recorded value of pIC50 equal to or greater than 6 for this compound? NC1=NC2(CO1)c1cc(-c3cncc(C(F)(F)F)c3)ccc1OC1(CCC1)C21COC1 (stereo not drawn)
Reply: label 0

Task item: Please tell me: is the compound CC#Cc1cc(-c2ccc3c(c2)C2(COC(N)=N2)C2(COC2)CO3)ccn1 (stereo not drawn) at or over 6 in terms of pIC50?
Reply: label 1

Task item: Given NC1=NC2(CO1)c1cc(-c3cncnc3)ccc1OC1(CCCC1)C21COC1 (stereo not drawn) , state whether its pIC50 is at least 6.
Reply: label 1

Task item: Evaluate NC1=NC2(CO1)c1cc(-c3cccnc3F)ccc1OC1(CCC1)C21COC1 (stereo not drawn) : pIC50 at minimum 6?
Reply: label 1

Task item: Form field: pIC50 at least 6? Entry: NC1=NC2(CO1)c1cc(-c3cncc(OCC(F)(F)F)c3)ccc1OCC21CC1 (stereo not drawn)
Reply: label 1

Task item: # bool: pIC50 of COc1cncc(-c2ccc3c(c2)C2(COC(N)=N2)C2(COC2)C2(CCC2)O3)c1 (stereo not drawn) >= 6
Reply: label 1

Task item: Exam item: decide whether the reported pIC50 for COc1ncc(Cl)cc1-c1ccc2c(c1)C1(COC(N)=N1)C1(COC1)C(C)(C)O2 (stereo not drawn) is at least 6.
Reply: label 1

Task item: Is the recorded value of pIC50 equal to or greater than 6 for this compound? COc1cccc(-c2ccc3c(c2)C2(COC(N)=N2)C2(COC2)C(C)(C)O3)c1 (stereo not drawn)
Reply: label 1

Task item: Given the entry NC1=NC2(CO1)c1cc(-c3cncc(OC(F)F)c3)ccc1OCC21CC1 (stereo not drawn) , answer whether its pIC50 meets or surpasses 6.
Reply: label 1

Task item: Say whether CC1(C)Oc2ccc(-c3cc(F)cc(Cl)c3)cc2C2(COC(N)=N2)C12COC2 (stereo not drawn) shows pIC50 of 6 or more.
Reply: label 1

Task item: pIC50 >= 6 for CNC(=O)c1cc(F)cc(-c2ccc3c(c2)C2(COC(N)=N2)C2(COC2)C(C)(C)O3)c1 (stereo not drawn) ?
Reply: label 0

Task item: Please check the record Cc1cc(F)cc(-c2ccc3c(c2)C2(COC(N)=N2)C2(COC2)C(C)(C)O3)c1 (stereo not drawn) and state if its pIC50 is at or above 6.
Reply: label 1

* * *

Target: BACE1 (Homo sapiens (Human), UniProt P56817)
Sequence (P56817 46-501): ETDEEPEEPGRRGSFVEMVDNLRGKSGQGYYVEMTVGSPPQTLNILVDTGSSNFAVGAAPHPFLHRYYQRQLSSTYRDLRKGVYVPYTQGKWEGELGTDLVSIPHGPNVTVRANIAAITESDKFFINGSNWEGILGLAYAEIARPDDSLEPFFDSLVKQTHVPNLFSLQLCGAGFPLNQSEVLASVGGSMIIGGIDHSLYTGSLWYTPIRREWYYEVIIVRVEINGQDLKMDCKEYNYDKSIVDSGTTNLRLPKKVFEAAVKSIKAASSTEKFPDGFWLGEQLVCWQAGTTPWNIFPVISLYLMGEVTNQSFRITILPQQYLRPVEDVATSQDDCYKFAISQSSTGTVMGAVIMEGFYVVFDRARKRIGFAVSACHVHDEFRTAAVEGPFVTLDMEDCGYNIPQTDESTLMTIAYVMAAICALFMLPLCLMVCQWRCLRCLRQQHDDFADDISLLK
Assay: Measurement of Aβ production inhibition in cell (SK-N-BE(2) neuroblastoma cells, Aβ40 ELISA)
Conditions: Test Example 3 IC50, Aβ40 production, SK-N-BE(2) cells, 6 hours
# class assignment by measured IC50: bottom range: < 300 nM; center range: ≥ 300 nM and < 900 nM; top range: ≥ 900 nM

Task item: Form field 'band' for CC1(C)Oc2ccc(-c3cc(C#N)ccc3F)cc2C2(COC(N)=N2)C12COC2 (centres unmarked)
Reply: center range

Task item: Band assignment needed for NC1=NC2(CO1)c1cc(Br)ccc1OC(Cc1ccccc1)C21COC1 (single isomer, unassigned) [RP 15b] please.
Reply: center range

Task item: Hi, small favor: classify NC1=NC2(CO1)c1cc(Nc3ncccc3Cl)ccc1OC1(CCC1)C21COC1 (centres unmarked) by its IC50 when you get a moment.
Reply: bottom range

Task item: State the band of N#Cc1cncc(-c2ccc3c(c2)C2(COC(N)=N2)C2(COC2)C2(CCC2)O3)c1 (centres unmarked)
Reply: top range

Task item: Exam item: assign NC1=NC2(CS1)c1cc(Br)ccc1OCC21COC1 (centres unmarked) to the correct category.
Reply: top range

Task item: The entry to classify is NC1=NC2(CO1)c1cc(-c3cncc(C#CC4CC4)c3)ccc1OC1(CCC1)C21COC1 (centres unmarked) ; which class holds it?
Reply: center range

Task item: Band assignment needed for NC1=NC2(CO1)c1cc(-c3cccnc3F)ccc1OCC21CC1 (centres unmarked) please.
Reply: center range

Task item: For the record NC1=NC2(CO1)c1cc(-c3cncnc3)ccc1OCC21CCCO1 (centres unmarked) , report the class its IC50 corresponds to.
Reply: top range

Task item: Kindly state the category for this molecule: CC1(C)Oc2ccc(-c3cncnc3)cc2C2(COC(N)=N2)C12COC2 (centres unmarked) [RP 69]
Reply: bottom range

Task item: Which bin, given its IC50, does COc1ccc(F)c(-c2ccc3c(c2)C2(COC(N)=N2)C2(COC2)CO3)c1 (centres unmarked) occupy?
Reply: top range

Task item: For the record N#Cc1ccc(C(=O)Nc2ccc3c(c2)C2(COC(N)=N2)C2(CC2)CO3)nc1 (centres unmarked) , report the class its IC50 corresponds to.
Reply: bottom range

Task item: Category lookup for the molecule CCCC1Oc2ccc(-c3cncnc3)cc2C2(COC(N)=N2)C12COC2 (centres unmarked) [RP 91]
Reply: center range

Task item: Where would NC1=NC2(CO1)c1cc(NC(=O)c3ncc(Br)cn3)ccc1OCC21CC1 (centres unmarked) land among the classes by reported IC50?
Reply: bottom range

Task item: Assign a bin to CC1(C)Oc2ccc(-c3cncc(Cl)c3)cc2C2(COC(N)=N2)C12COC2 (centres unmarked)
Reply: bottom range

Task item: Assign a category based on measured IC50 for CC1(C)Oc2ccc(-c3ccc4[nH]ncc4c3)cc2C2(COC(N)=N2)C12COC2 (centres unmarked) and give only the class name.
Reply: top range

Task item: Form field 'band' for CC#Cc1cncc(-c2ccc3c(c2)C2(COC(N)=N2)C2(CC2)CO3)c1 (single isomer, unassigned) [RP 52a]
Reply: bottom range

Task item: Tag the class for NC1=NC2(CO1)c1cc(Br)ccc1OC(Cc1ccccc1)C21COC1 (single isomer, unassigned) [RP 15a]
Reply: top range

Task item: Which IC50 band matches CC1(C)Oc2ccc(NC(=O)c3ccc(F)cn3)cc2[C@@]2(COC(N)=N2)C12CC2 ?
Reply: bottom range

Task item: Hey, which category is CC#Cc1cncc(-c2ccc3c(c2)C2(COC(N)=N2)C2(CCC2)CO3)c1 (centres unmarked) in, do you know?
Reply: center range

Task item: Textbook exercise: identify the category of the molecule given here, Cc1cccc(-c2ccc3c(c2)C2(COC(N)=N2)C2(COC2)C2(CCC2)O3)c1 (centres unmarked) , according to its measured value.
Reply: top range

Task item: Quick check: band for CC1(C)Oc2ccc(-c3ccc4c(c3)OCO4)cc2C2(COC(N)=N2)C12COC2 (centres unmarked)
Reply: top range

Task item: Hey, which category is CC1(C)Oc2ccc(-c3cccc(C4CC4)c3)cc2C2(COC(N)=N2)C12COC2 (centres unmarked) in, do you know?
Reply: center range

* * *

Molecular target: BACE1 (Homo sapiens (Human))
Assay: Measurement of Aβ production inhibition in cell (SK-N-BE(2) neuroblastoma cells, Aβ40 ELISA)
Conditions: Test Example 3 IC50, Aβ40 production, SK-N-BE(2) cells, 6 hours
For each record, check the reported IC50: if it is below 800 nM write fulfilled, else write not fulfilled.

Task item: Is IC50 of CC#Cc1cc(-c2ccc3c(c2)C2(COC(N)=N2)C2(COC2)CO3)ncn1 (stereo not drawn) strictly below 800 nM?
Reply: fulfilled

Task item: I'd appreciate it if you could check whether CC#Cc1cncc(-c2ccc3c(c2)C2(COC(N)=N2)C2(COC2)C(CCC)O3)c1 (stereo not drawn) has IC50 smaller than 800 nM.
Reply: fulfilled

Task item: Regarding NC1=NC2(CO1)c1cc(-c3cncc(OCC(F)(F)C(F)F)c3)ccc1OCC21CC1 (stereo not drawn) , kindly confirm whether its IC50 is beneath 800 nM.
Reply: not fulfilled

Task item: State whether 800 nM exceeds IC50 recorded for CC1(C)Oc2ccc(NC(=O)c3ccc(Cl)cn3)cc2[C@@]2(COC(N)=N2)C12CC2 .
Reply: fulfilled

Task item: Quick check: does CCC1Oc2ccc(-c3cncnc3)cc2C2(COC(N)=N2)C12COC2 (stereo not drawn) [RP 87] have IC50 under 800 nM?
Reply: fulfilled

Task item: Is IC50 strictly under 800 nM for the entry CCOc1cc(F)cc(-c2ccc3c(c2)C2(COC(N)=N2)C2(COC2)C2(CCC2)O3)c1 (stereo not drawn) ?
Reply: not fulfilled

Task item: # strict comparison: is reported IC50 < 800 nM? input = COCC#Cc1cncc(-c2ccc3c(c2)C2(COC(N)=N2)C2(COC2)CO3)c1 (stereo not drawn)
Reply: fulfilled

Task item: Please indicate whether the reported IC50 of NC1=NC2(CO1)c1cc(-c3cncnc3)ccc1OC(Cc1ccccc1)C21COC1 (stereo not drawn) is strictly below 800 nM.
Reply: fulfilled

Task item: Just wondering, is IC50 of NC1=NC2(CO1)c1cc(-c3cncc(F)c3)ccc1OC1(CCC1)C21COC1 (stereo not drawn) below 800 nM?
Reply: not fulfilled

Task item: Please determine if NC1=NC2(CO1)c1cc(-c3cncc(OCC(F)F)c3)ccc1OCC21CC1 (stereo not drawn) is below 800 nM in terms of IC50.
Reply: fulfilled

Task item: Hi there! Is IC50 for COc1cccc(-c2ccc3c(c2)C2(COC(N)=N2)C2(COC2)C2(CCC2)O3)c1F (stereo not drawn) below 800 nM, do you know?
Reply: not fulfilled

Task item: Criterion: IC50 strictly below 800 nM. Is it met by NC1=NC2(c3cc(-c4cncnc4)ccc3OCC23CC3)C(F)(F)CO1 (stereo not drawn) ?
Reply: not fulfilled

Task item: Item NC1=NC2(CO1)c1cc(C3=CCCCC3)ccc1OC1(CCC1)C21COC1 (stereo not drawn) : IC50 beneath 800 nM, strictly?
Reply: not fulfilled

Task item: Please check: IC50 for CCCC1Oc2ccc(-c3cncnc3)cc2C2(COC(N)=N2)C12COC2 (stereo not drawn) [RP 94] , strictly under 800 nM or not?
Reply: fulfilled

Task item: is_below(IC50, 800 nM) for CCOc1cc(-c2ccc3c(c2)C2(COC(N)=N2)C2(COC2)C2(CCC2)O3)cc(C(F)(F)F)c1 (stereo not drawn) ?
Reply: not fulfilled

Task item: Item CC1(C)Oc2ccc(-c3cc(F)ccn3)cc2C2(COC(N)=N2)C12COC2 (stereo not drawn) : IC50 beneath 800 nM, strictly?
Reply: not fulfilled

Task item: Does the reported IC50 of CC#Cc1cncc(-c2ccc3c(c2)C2(COC(N)=N2)C2(CC2)CO3)c1 (stereo not drawn) [RP 111] stay below 800 nM?
Reply: fulfilled

Task item: I wonder whether NC1=NC2(CO1)c1cc(-c3cnc4[nH]ccc4c3)ccc1OCC21CC1 (stereo not drawn) has IC50 below 800 nM. Can you tell?
Reply: fulfilled
